Test system: L1210 leukemia ip in BDF1 mice, survival T/C
Assay: NCI In Vivo Anticancer Drug Screen. Data for tumor model L1210 Leukemia (intraperitoneal) in B6D2F1 (BDF1) mice
Conditions: endpoint: mean survival time; dose: 100.0 mg/kg/injection; schedule: Q04DX002 (ip); vehicle: saline
Toxic doses and inconclusive results are not listed. No stated cut-off is given here; in the data, active means T/C of 150% or more; inactive means T/C below 125%.
Possible outcomes: class 1 = active, class 0 = inactive

{"COMPOUND": "CC(=O)OCC(C)(C)c1ccccc1", "LABEL": "class 0"}
{"COMPOUND": "CC(=O)NC(CC(C)C)C(=O)O (stereo not drawn)", "LABEL": "class 0"}
{"COMPOUND": "Cn1ccccc1=O", "LABEL": "class 0"}
{"COMPOUND": "CC(C)NNC(=O)c1ccccc1", "LABEL": "class 0"}
{"COMPOUND": "CCOC(=O)N(OC(C)=O)P(=O)(N1CC1(C)C)N1CC1(C)C (stereo not drawn)", "LABEL": "class 0"}
{"COMPOUND": "CCOC(=O)NOP(=O)(N1CC1(C)C)N1CC1(C)C (stereo not drawn)", "LABEL": "class 1"}
{"COMPOUND": "CCCCC(=O)N1CCOCC1", "LABEL": "class 0"}
{"COMPOUND": "CC(=O)NC(CC(=O)O)C(=O)O (stereo not drawn)", "LABEL": "class 0"}

Values were extracted from PubChem BioAssay AID248.
